For each entry below, report its mass density value.
Conditions: 303.15 K; 101.33 kPa; Liquid; Vibrating tube method
Answers are plain numbers, in kg/m3.

These recorded examples may help you get a feel for the data.
>>> value_observed("CCCCN [1-butanamine]")
727.452
>>> value_observed("CCCNCCC [dipropylamine]")
729.098
>>> value_observed("CCCCNCCCC [dibutylamine]")
751.458
>>> value_observed("CN(C)C=O [dimethylformamide]")
939.361

### Prompt Entry CCCCCCN [1-hexanamine] : reported mass density = ?
### Response 755.848

###

For each entry below, report its refractive index value.
Assay: refractive index (Na D-line) (dimensionless)
Conditions: 303.15 K; 101.33 kPa; Liquid; Standard Abbe refractometry
Give bare numbers.

# example entries with known answers
>>> value_observed("CCCCNCCCC [dibutylamine]")
1.41253
>>> value_observed("CCCNCCC [dipropylamine]")
1.39883
>>> value_observed("CCCCN [1-butanamine]")
1.395

Turning to the following molecule.
### Prompt Please report the recorded refractive index for CN(C)C=O [dimethylformamide] .
### Response 1.42603
